- assayProcedure: chemical genetic growth profiling, strain panel (AID 1159580);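 further: tested at 20 µM; growth read once vehicle control cultures reached saturation at 30 °C; 1 = growth at the plate median or of vehicle wells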
- conditionInfo: S. cerevisiae deletion strains, growth OD, locus YNL153C, strain GIM3
Out of some 5,500 compounds screened, about 2,000 (36%) were called active. Inconclusive results (about 18%) are left out. No stated cut-off is given here; in the data, active means normalized growth mostly below about 0.91 (no sharp cut-off); inconclusive means no clear call, values can overlap the other calls; inactive means mostly above about 0.92. The list shows a part of the results.
Form entry, call: pick from T = active, F = inactive

// below: answered compounds
compound: O=C(O)Cc1cnc[nH]1
answerLabel: F

compound: COc1c(C(C)C)oc2cc3oc(=O)ccc3cc12
answerLabel: T

compound: CCCCCCCCCC(=O)NC(CN1CCOCC1)[C@H](O)c1ccccc1 (some centres undefined)
answerLabel: F

Outcome? CC12CCC3c4ccc(OC(=O)c5ccccc5)cc4CCC3C1CCC2O (centres undefined)
F

---

- assayProcedure: chemical genetic growth profiling, strain panel (AID 1159580);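 further: tested at 20 µM; growth read once vehicle control cultures reached saturation at 30 °C; 1 = growth at the plate median or of vehicle wells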
- conditionInfo: S. cerevisiae deletion strains, growth OD, locus YHR129C, strain ARP1, stronger effect = lower value
Out of some 5,500 compounds screened, about 2,000 (36%) were called active. Inconclusive results (about 18%) are left out. The list shows a part of the results.
Consider the following compounds and their measured normalized growth readings.

Known results for compounds:
compound: COc1ccc2c(c1)CCC1C2CCC2(C)C1C[C@@H](O)C2O (stereo not given in full)
normalized growth: 1.01 (inactive)

compound: C=C[C@H]1CN2CC[C@H]1C[C@@H]2[C@@H](OC(=O)OCC)c1ccnc2ccc(OC)cc12
normalized growth: 1.01 (inactive)

compound: CCN(Cc1ccncc1)C(=O)C(CO)c1ccccc1 (stereo not given)
normalized growth: 0.993 (inactive)

compound: CCCCCCCCCCCC1=C(O)C(=O)C=C(O)C1=O
normalized growth: 0.67 (active)

Let us move to another entry and its normalized growth.
Name the reported normalized growth value associated with the compound COc1ccc2c(c1)CCC1C2CC[C@@]2(C)C1CC[C@@H]2O (stereo not given in full)
0.753 (active)

---

- assayProcedure: chemical genetic growth profiling, strain panel (AID 1159580);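 further: tested at 20 µM; growth read once vehicle control cultures reached saturation at 30 °C; 1 = growth at the plate median or of vehicle wells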
- conditionInfo: S. cerevisiae deletion strains, growth OD, locus YIL073C, strain SPO22
In all, about 5,500 compounds went through this assay and about 2,000 (36%) were called active. Inconclusive results (about 18%) are left out. No stated cut-off is given here; in the data, active means normalized growth mostly below about 0.91 (no sharp cut-off); inconclusive means no clear call, values can overlap the other calls; inactive means mostly above about 0.92. This is one part of the list.
Form entry, call: pick from active, inactive

// below: answered molecules
molecule: CC1CC[C@@]2(OC1)O[C@H]1CC3C4CC[C@@H]5CC(=O)CC[C@]5(C)C4CC[C@]3(C)[C@H]1[C@@H]2C (stereo partly drawn)
answerLabel: inactive

molecule: C[C@@H]1CC[C@@]2(OC1)OC1CC3C4CC=C5C[C@@H](O)CC[C@]5(C)C4CC[C@]3(C)C1[C@@H]2C (stereo partly drawn)
answerLabel: inactive

Outcome? CC1CC[C@]2(NC1)O[C@H]1CC3C4CC[C@H]5C[C@@H](O)CC[C@]5(C)C4CC[C@]3(C)[C@H]1[C@@H]2C (stereo partly drawn)
active

---

- assayProcedure: chemical genetic growth profiling, strain panel (AID 1159580);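 further: tested at 20 µM; growth read once vehicle control cultures reached saturation at 30 °C; 1 = growth at the plate median or of vehicle wells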
- conditionInfo: S. cerevisiae deletion strains, growth OD, locus YGL253W, strain hxk2, stronger effect = lower value
In all, about 5,500 compounds went through this assay and about 2,000 (36%) were called active. Not shown: some 18% with an inconclusive outcome. This is one part of the list.
Consider the following molecules and their measured normalized growth readings.
The reply should be a number, written without any unit.

Known results for molecules:
molecule: O=c1ccc2c(O)c3ccoc3cc2o1
testValue: 0.997
//
molecule: CC/C(=C(/CC)c1ccc(O)cc1)c1ccc(O)cc1
testValue: 0.989
//
molecule: CC1CCC2(OC1)OC1CC3C4CC[C@H]5C[C@@H](O)CC[C@]5(C)C4CC(=O)[C@]3(C)C1C2C (stereo partly specified)
testValue: 1.01
//
molecule: C=C1CCC2(OC1)OC1CC3C4CC=C5CC(O)CC(O)C5(C)C4CCC3(C)C1C2C (stereo unspecified)
testValue: 0.855
//
molecule: C[C@@H]1CC[C@@]2(OC1)OC1CC3C4CC=C5C[C@@H](O)CC[C@]5(C)C4CC[C@]3(C)C1[C@@H]2C (stereo partly specified)
testValue: 1.01

Name the reported normalized growth value associated with the molecule C[C@@H]1CC[C@@]2(OC1)O[C@H]1CC3C4CC[C@H]5C[C@@H](O)CC[C@]5(C)C4CC[C@]3(C)[C@H]1[C@@H]2C (stereo partly specified)
1
